Data provenance is ChEMBL document CHEMBL1148788.

study-system: Neuronal acetylcholine receptor subunit alpha-7 (Homo sapiens)
assay-remarks: Displacement of [3H]methyllycaconitine from alpha7 nAChR in tsA201 cells co-expressed with Ric3
Type: cell-based
measurement-conditions: read-out: pKi (converted)
Reported Ki values follow for various compounds
In your response, put the unit directly after the numeric value.

>>> value_observed("OC/C=C1/CN2CC[C@H]3[C@@H]2C[C@@H]1/C1=C/N2c4ccccc4[C@@]45CCN6CC7=CCO[C@H]([C@@H]([C@H]24)[C@H]7C[C@H]65)N(c2ccccc2)[C@@H]13")
"1580 nM"

Consider the additional compound presented here.
# input Dear colleague, I am looking for the recorded Ki of the following compound: CC(=O)OCC[N+]12CC[C@@H]3[C@@H]4[C@@H]5[C@@H](OCC=C(C1)[C@@H]5C[C@@H]32)N1c2ccccc2[C@@]23CC[N+]5(CCOC(C)=O)CC6=CCO[C@H]([C@@H]([C@H]12)[C@H]6C[C@@H]35)N4c1ccccc1.[Br-].[Br-] (some centres not stated)
# output 316 nM

* * *

study-system: Neuronal acetylcholine receptor subunit alpha-7 (Homo sapiens, UniProt P36544)
Sequence (P36544 whole entry): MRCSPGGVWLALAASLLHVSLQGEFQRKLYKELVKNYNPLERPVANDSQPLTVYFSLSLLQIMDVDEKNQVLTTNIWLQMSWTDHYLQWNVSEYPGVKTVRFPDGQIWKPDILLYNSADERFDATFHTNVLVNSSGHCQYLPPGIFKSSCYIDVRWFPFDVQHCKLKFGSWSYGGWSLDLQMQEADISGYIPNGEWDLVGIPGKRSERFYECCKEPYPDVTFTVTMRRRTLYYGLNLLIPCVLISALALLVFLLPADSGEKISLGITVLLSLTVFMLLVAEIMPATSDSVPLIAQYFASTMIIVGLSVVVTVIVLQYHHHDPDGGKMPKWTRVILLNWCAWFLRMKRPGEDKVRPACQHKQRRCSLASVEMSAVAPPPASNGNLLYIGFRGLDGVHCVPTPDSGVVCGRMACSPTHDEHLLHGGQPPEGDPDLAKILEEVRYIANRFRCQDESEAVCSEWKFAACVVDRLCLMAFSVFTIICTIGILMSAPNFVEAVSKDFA
assay-remarks: Antagonist activity at human alpha-7 nAChR in tsA201 cells coexpressed with Ric3 by FMP assay
Assay type: functional, cell-based
measurement-conditions: read-out: IC50
value-kind: pIC50
API: returns pIC50 as number; meaning -log10 of concentration in mol/L.

Some solved cases for reference:
>>> value_observed("OC/C=C1/CN2CC[C@H]3[C@@H]2C[C@@H]1/C1=C/N2c4ccccc4[C@@]45CCN6CC7=CCO[C@H]([C@@H]([C@H]24)[C@H]7C[C@H]65)N(c2ccccc2)[C@@H]13")
5.82
>>> value_observed("C=CC[N+](C)(C)Cc1c2n(c3ccccc13)Cc1c(C[N+](C)(C)CC=C)c3ccccc3n1C2.[Br-].[Br-]")
4.52

# input Dear colleague, I am looking for the recorded pIC50 of the following molecule: CCN1C[C@]2(COC(=O)c3ccccc3N3C(=O)C[C@H](C)C3=O)CC[C@H](OC)[C@@]34[C@@H]5C[C@H]6[C@H](OC)[C@@H]5[C@](O)(C[C@@H]6OC)[C@](O)([C@@H](OC)[C@H]23)[C@@H]14 [METHYLLYCACONITINE]
# output 8.08

# input Same again, this time with C1=C2C[N+]3(Cc4ccccc4)CC[C@@H]4[C@@H]5[C@H]([C@@H](OC1)N1c6ccccc6[C@@]67CC[N+]8(Cc9ccccc9)CC9=CCO[C@H]([C@@H]([C@H]16)[C@H]9C[C@@H]78)N5c1ccccc1)[C@H]2C[C@@H]43.[Br-].[Br-] (some centres undefined)
# output 5.35

* * *

study-system: Neuronal acetylcholine receptor subunit alpha-7 (Homo sapiens, UniProt P36544)
assay-remarks: Antagonist activity at human alpha-7 nAChR in tsA201 cells coexpressed with Ric3 by FMP assay
Type: functional, cell-based
measurement-conditions: read-out: IC50
Reported IC50 values follow for various compounds
In your response, put the unit directly after the numeric value.

Some solved cases for reference:
>>> value_observed("C[N+]12CC[C@@H]3[C@@H]4[C@@H]5[C@@H](OCC=C(C1)[C@@H]5C[C@@H]32)N1c2ccccc2[C@@]23CC[N+]5(C)CC6=CCO[C@H]([C@@H]([C@H]12)[C@H]6C[C@@H]35)N4c1ccccc1.[I-].[I-] (stereo partly drawn)")
"1500 nM"
>>> value_observed("C1=C2CN3CC[C@@H]4[C@@H]5[C@H]([C@@H](OC1)N1c6ccccc6[C@@]67CCN8CC9=CCO[C@H]([C@@H]([C@H]16)[C@H]9C[C@H]87)N5c1ccccc1)[C@H]2C[C@@H]43")
"1600 nM"

Consider the additional compound presented here.
# input Dear colleague, I am looking for the recorded IC50 of the following compound: O=[N+]([O-])c1ccc(C[N+]23CC[C@@H]4[C@@H]5[C@@H]6[C@@H](OCC=C(C2)[C@@H]6C[C@@H]43)N2c3ccccc3[C@@]34CC[N+]6(Cc7ccc([N+](=O)[O-])cc7)CC7=CCO[C@H]([C@@H]([C@H]23)[C@H]7C[C@@H]46)N5c2ccccc2)cc1.[Br-].[Br-] (stereo partly drawn)
# output 370 nM

* * *

assay-remarks: Antagonist activity at human alpha-7 nAChR Y188A mutant coexpressed with human Ric3 in tsA201 cells by FMP assay
Assay type: functional, cell-based
measurement-conditions: read-out: EC50
value-kind: pEC50
API: returns pEC50 as number; meaning -log10 of concentration in mol/L.

# input Dear colleague, I am looking for the recorded pEC50 of the following compound: CC(=O)OCC[N+](C)(C)C
# output 2.41

* * *

Reported Ki values follow for various compounds
study-system: Neuronal acetylcholine receptor; alpha3/beta4 (Rattus norvegicus, UniProt P04757+P12392)
Sequence (P04757 whole entry): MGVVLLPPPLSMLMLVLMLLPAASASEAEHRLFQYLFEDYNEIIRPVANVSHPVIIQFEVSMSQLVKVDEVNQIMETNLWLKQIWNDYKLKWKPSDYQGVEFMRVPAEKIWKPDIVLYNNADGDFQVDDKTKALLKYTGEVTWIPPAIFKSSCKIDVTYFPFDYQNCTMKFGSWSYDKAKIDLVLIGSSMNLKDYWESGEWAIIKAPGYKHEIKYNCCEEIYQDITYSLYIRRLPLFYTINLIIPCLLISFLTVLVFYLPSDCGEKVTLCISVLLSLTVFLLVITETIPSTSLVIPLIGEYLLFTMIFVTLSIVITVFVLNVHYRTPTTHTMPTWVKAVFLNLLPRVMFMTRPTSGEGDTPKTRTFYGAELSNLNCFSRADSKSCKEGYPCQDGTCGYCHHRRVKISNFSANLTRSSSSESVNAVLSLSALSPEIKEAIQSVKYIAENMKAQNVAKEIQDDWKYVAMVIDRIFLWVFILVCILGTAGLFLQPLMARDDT
Sequence (P12392 whole entry): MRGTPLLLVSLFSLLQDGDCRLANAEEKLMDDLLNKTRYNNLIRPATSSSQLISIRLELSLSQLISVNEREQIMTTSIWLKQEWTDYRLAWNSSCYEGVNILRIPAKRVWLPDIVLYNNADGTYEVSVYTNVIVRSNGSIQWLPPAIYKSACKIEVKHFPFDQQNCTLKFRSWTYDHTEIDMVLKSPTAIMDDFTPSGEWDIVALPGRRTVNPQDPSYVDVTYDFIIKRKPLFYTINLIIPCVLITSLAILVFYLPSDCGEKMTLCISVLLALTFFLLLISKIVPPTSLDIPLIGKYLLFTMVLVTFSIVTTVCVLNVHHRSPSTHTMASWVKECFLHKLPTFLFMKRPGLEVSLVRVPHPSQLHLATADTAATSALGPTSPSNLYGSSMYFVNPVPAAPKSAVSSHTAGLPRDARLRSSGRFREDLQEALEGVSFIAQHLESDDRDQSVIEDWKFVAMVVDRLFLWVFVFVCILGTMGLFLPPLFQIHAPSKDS
assay-remarks: Displacement of [3H]epibatidine from recombinant rat alpha-3-beta-4 nAChr in HEK293 cell line
Answer format: numeric, µM implied, no suffix.

>>> value_observed("OC/C=C1/CN2CC[C@H]3[C@@H]2C[C@@H]1/C1=C/N2c4ccccc4[C@@]45CCN6CC7=CCO[C@H]([C@@H]([C@H]24)[C@H]7C[C@H]65)N(c2ccccc2)[C@@H]13")
30

Consider the additional compound presented here.
# input Can you look up Ki on Neuronal acetylcholine receptor; alpha3/beta4 (Rattus norvegicus, UniProt P04757+P12392) for C/C=C/C[N+]12CC[C@@H]3[C@@H]4[C@@H]5[C@@H](OCC=C(C1)[C@@H]5C[C@@H]32)N1c2ccccc2[C@@]23CC[N+]5(C/C=C/C)CC6=CCO[C@H]([C@@H]([C@H]12)[C@H]6C[C@@H]35)N4c1ccccc1.[Br-].[Br-] (stereo partly drawn) ?
# output 100

* * *

Reported pKi values follow for various molecules
assay-remarks: Displacement of [3H]methyllycaconitine from chimeric alpha-7nAChR S150A mutant/5HT3A receptor in tsA201 cells
Type: cell-based, Homo sapiens
API: returns pKi as number; meaning -log10 of concentration in mol/L.

Some solved cases for reference:
>>> value_observed("CCN1C[C@]2(COC(=O)c3ccccc3N3C(=O)C[C@H](C)C3=O)CC[C@H](OC)[C@@]34[C@@H]5C[C@H]6[C@H](OC)[C@@H]5[C@](O)(C[C@@H]6OC)[C@](O)([C@@H](OC)[C@H]23)[C@@H]14")
8.46
>>> value_observed("C[N+]12CC[C@@H]3[C@@H]4/C(=C\\N5c6ccccc6[C@@]67CC[N+]8(C)CC9=CCO[C@H]([C@@H]([C@H]56)[C@H]9C[C@@H]78)N4c4ccccc4)[C@@H](C[C@@H]31)/C(=C\\CO)C2.[I-].[I-] (some centres undefined)")
6.14
>>> value_observed("C[N+]12CC[C@@H]3[C@@H]4[C@@H]5[C@@H](OCC=C(C1)[C@@H]5C[C@@H]32)N1c2ccccc2[C@@]23CC[N+]5(C)CC6=CCO[C@H]([C@@H]([C@H]12)[C@H]6C[C@@H]35)N4c1ccccc1.[I-].[I-] (some centres undefined)")
6.30

Consider the additional molecule presented here.
# input Dear colleague, I am looking for the recorded pKi of the following molecule: C1=CC([N+]23CC[C@@H]4[C@@H]5[C@@H]6[C@@H](OCC=C(C2)[C@@H]6C[C@@H]43)N2c3ccccc3[C@@]34CC[N+]6(C7C=CCCC7)CC7=CCO[C@H]([C@@H]([C@H]23)[C@H]7C[C@@H]46)N5c2ccccc2)CCC1.[Br-].[Br-] (some centres undefined)
# output 6.26

* * *

Reported pIC50 values follow for various compounds
study-system: Neuronal acetylcholine receptor; alpha3/beta4 (Rattus norvegicus, UniProt P04757+P12392)
assay-remarks: Antagonist activity at rat alpha3beta4 nAChR expressed in HEK293 cells by FMP assay
Type: functional, cell-based, Homo sapiens
measurement-conditions: read-out: IC50
API: returns pIC50 as number; meaning -log10 of concentration in mol/L.

>>> value_observed("OC/C=C1/CN2CC[C@H]3[C@@H]2C[C@@H]1/C1=C/N2c4ccccc4[C@@]45CCN6CC7=CCO[C@H]([C@@H]([C@H]24)[C@H]7C[C@H]65)N(c2ccccc2)[C@@H]13")
4.80
>>> value_observed("C1=CC([N+]23CC[C@@H]4[C@@H]5[C@@H]6[C@@H](OCC=C(C2)[C@@H]6C[C@@H]43)N2c3ccccc3[C@@]34CC[N+]6(C7C=CCCC7)CC7=CCO[C@H]([C@@H]([C@H]23)[C@H]7C[C@@H]46)N5c2ccccc2)CCC1.[Br-].[Br-] (stereo not given in full)")
4.52

Consider the additional compound presented here.
# input Dear colleague, I am looking for the recorded pIC50 of the following compound: C[N+]12CCC34c5ccccc5N5/C=C6/[C@H]7C[C@H]8[C@@]9(CC[N+]8(C)C/C7=C/CO)c7ccccc7N(/C=C(/[C@@H](C[C@@H]31)/C(=C\CO)C2)[C@H]54)[C@@H]69.[Cl-].[Cl-] (stereo not given in full) [TOXIFERINE]
# output 4.52
